Target: LmxCLK1 (Leishmania mexicana)
Sequence (E9AMP2 1-422): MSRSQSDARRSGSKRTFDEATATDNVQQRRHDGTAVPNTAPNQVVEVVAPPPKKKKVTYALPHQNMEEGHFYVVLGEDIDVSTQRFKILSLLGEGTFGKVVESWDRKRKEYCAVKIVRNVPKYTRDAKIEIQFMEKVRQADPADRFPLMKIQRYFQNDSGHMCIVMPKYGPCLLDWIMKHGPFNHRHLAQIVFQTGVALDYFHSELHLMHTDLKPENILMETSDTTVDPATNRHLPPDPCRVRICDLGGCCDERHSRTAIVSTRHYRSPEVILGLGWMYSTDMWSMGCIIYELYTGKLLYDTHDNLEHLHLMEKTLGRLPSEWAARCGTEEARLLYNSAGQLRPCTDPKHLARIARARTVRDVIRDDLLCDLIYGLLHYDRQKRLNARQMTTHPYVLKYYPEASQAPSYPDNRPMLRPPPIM
Assay: biochemical
Type: binding
Conditions: DSF, 10 µM compound, 2 µM LmxCLK1, Run 2; read-out: ΔTm Run 2
Binary classification by ΔTm at 10 µM, with 0.1 °C as an inclusive lower bound for yes (1); all other cases are no (0).

Test whether the compound NC(=O)Nc1cc(-c2cccc(F)c2)sc1C(=O)N[C@H]1CCCNC1 records ΔTm at 10 µM of 0.1 °C or higher.
yes (1)

Tell me whether ΔTm at 10 µM is at least 0.1 °C here: CCc1cccc(CC)c1NC(=O)N1Cc2n[nH]c(NC(=O)c3ccc(N4CCN(C)CC4)cc3)c2C1
yes (1)

Please tell me: is the compound CN(C[C@@H]1COCCO1)S(=O)(=O)Nc1ccc2ccc3ncc(-c4cnn(C)c4)cc3c(=O)c2c1 at or over 0.1 °C in terms of ΔTm at 10 µM?
yes (1)

Threshold query (ΔTm at 10 µM >= 0.1 °C) on CC(C)CC(=O)Nc1[nH]nc2c1CN(C(=O)C1CCN(C)CC1)C2(C)C
no (0)

Could you tell me if the measured ΔTm at 10 µM of Cc1cc(Nc2nc(N[C@@H](C)c3ncc(F)cn3)ncc2Cl)n[nH]1 reaches 0.1 °C or more?
yes (1)

***
Can C#Cc1cccc(Nc2ncnc3cc4c(cc23)OCCOCCOCCO4)c1 be said to have ΔTm at 10 µM at or above 0.1 °C?
no (0)

Hi team, for CNC(=O)c1cccc(-c2ccc3c(N4CCOC[C@@H]4C)nc(N4CCOC[C@@H]4C)nc3n2)c1 , is the recorded ΔTm at 10 µM at or above 0.1 °C?
no (0)

# bool: ΔTm at 10 µM of CN(C)Cc1cccc(N/C(=C2\C(=O)Nc3cc(C(N)=O)ccc32)c2ccccc2)c1 >= 0.1 °C
no (0)

State whether the measured ΔTm at 10 µM reaches 0.1 °C, counting equality as reaching it, for CN(C)C/C=C/C(=O)Nc1cc2c(Nc3ccc(F)c(Cl)c3)ncnc2cc1O[C@H]1CCOC1
no (0)

----------
Biological target: LmxCLK1 (Leishmania mexicana)
Sequence (E9AMP2 1-422): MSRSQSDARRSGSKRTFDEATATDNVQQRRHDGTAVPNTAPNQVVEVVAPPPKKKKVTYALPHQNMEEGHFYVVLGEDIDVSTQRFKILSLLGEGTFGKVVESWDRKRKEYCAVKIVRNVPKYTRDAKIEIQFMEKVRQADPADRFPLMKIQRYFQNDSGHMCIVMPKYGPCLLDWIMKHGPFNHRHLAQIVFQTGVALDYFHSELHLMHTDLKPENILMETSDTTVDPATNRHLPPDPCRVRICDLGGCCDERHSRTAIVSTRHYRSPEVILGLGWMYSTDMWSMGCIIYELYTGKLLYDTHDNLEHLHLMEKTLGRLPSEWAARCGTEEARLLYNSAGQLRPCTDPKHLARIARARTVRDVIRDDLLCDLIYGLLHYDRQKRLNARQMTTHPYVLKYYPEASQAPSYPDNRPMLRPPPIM
Assay: biochemical
Format: binding
Conditions: DSF, 10 µM compound, 2 µM LmxCLK1, mean of two runs; read-out: ΔTm Average
Threshold 0.1 °C. ΔTm at 10 µM below it: criterion met. ΔTm at 10 µM at it or above: criterion not met.

Answered examples (5):
Hi there! Is ΔTm at 10 µM for C=CC(=O)Nc1cccc(Nc2nc(Nc3ccc(OCCOC)cc3)ncc2F)c1 below 0.1 °C, do you know?
criterion met

Determine if C=CC(=O)Nc1cccc(Oc2nc(Nc3ccc(N4CCN(C)CC4)cc3OC)ncc2Cl)c1 shows ΔTm at 10 µM strictly lower than 0.1 °C.
criterion met

Decide: ΔTm at 10 µM of N#Cc1ccc2[nH]c(O)c(-c3ccc(CN4CCOCC4)cn3)c2c1 strictly below 0.1 °C?
criterion met

Hi there! Is ΔTm at 10 µM for O=c1c(O)c(-c2ccc(O)c(O)c2)oc2cc(O)cc(O)c12 below 0.1 °C, do you know?
criterion not met

Below 0.1 °C on ΔTm at 10 µM? Entry Nc1ncnc2c1c(-c1cccc(OCc3ccccc3)c1)cn2[C@H]1C[C@@H](CN2CCC2)C1
criterion met

***
Below 0.1 °C on ΔTm at 10 µM? Entry CS(=O)(=O)c1ccc(-c2cnc(N)c(C(=O)Nc3ccccc3)n2)cc1
criterion met

Could you please tell me whether ΔTm at 10 µM recorded for CCN1CCN(Cc2ccc(Nc3ncc(F)c(-c4cc(F)c5nc(C)n(C(C)C)c5c4)n3)nc2)CC1 is less than 0.1 °C?
criterion not met
